These measurements were taken from patent US20170355757A1.

Each record here notes measured t½.
Molecular target: T1, Human C5 (human, UniProt P01031 19-1676)
T1 construct: The natural protein has a beta and an alpha chain; also called complement factor 5; complement component 5
Assay: SPR, mAb captured by anti-hFc, 37C
Entry rule: numbers only, all in min.

Entry under review: H4H12166P9 (antibody, human IgG4, V domains shown, human IgG4 Fc with S108P hinge mutation) VH: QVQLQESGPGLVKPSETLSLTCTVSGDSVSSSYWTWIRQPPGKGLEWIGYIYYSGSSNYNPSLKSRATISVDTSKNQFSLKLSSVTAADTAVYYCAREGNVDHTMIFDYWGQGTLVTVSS VL: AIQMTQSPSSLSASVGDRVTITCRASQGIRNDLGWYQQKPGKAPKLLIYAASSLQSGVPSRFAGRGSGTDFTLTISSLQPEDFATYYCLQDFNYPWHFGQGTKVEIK . Reported t½?
18

Entry under review: H4H12161P (antibody, human IgG4, V domains shown) VH: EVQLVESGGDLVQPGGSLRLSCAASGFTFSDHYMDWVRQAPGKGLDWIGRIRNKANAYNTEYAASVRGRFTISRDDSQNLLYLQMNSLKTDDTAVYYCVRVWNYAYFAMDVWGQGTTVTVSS VL: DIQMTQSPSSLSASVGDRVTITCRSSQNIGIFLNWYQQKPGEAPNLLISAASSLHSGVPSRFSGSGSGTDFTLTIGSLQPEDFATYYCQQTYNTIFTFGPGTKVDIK . Reported t½?
101

Entry under review: H4H12167P (antibody, human IgG4, V domains shown) VH: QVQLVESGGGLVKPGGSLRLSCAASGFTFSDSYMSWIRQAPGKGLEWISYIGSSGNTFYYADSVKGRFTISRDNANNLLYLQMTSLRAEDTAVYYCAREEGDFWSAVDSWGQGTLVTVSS VL: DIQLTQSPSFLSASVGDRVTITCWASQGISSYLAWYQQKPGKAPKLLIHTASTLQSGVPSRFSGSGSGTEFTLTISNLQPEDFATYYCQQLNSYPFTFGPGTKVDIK . Reported t½?
30
